assayed-target: Gal4S6S(b1-4)GlcNAc
experiment-notes: glycan array binding signal (z-score within array); higher = stronger binding
study-conditions: glycan notation: IUPAC condensed, linker removed
This excerpt belongs to a sample that is enriched for the strongest signals.
assay-readout: glycan array binding signal (z-score)
Number only, please.

Q: Give the measured glycan array binding signal (z-score) for Annexin-A1 (Mus musculus), P10107 (protein) MAMVSEFLKQARFLENQEQEYVQAVKSYKGGPGSAVSPYPSFNVSSDVAALHKAIMVKGVDEATIIDILTKRTNAQRQQIKAAYLQENGKPLDEVLRKALTGHLEEVVLAMLKTPAQFDADELRGAMKGLGTDEDTLIEILTTRSNEQIREINRVYREELKRDLAKDITSDTSGDFRKALLALAKGDRCQDLSVNQDLADTDARALYEAGERRKGTDVNVFTTILTSRSFPHLRRVFQNYGKYSQHDMNKALDLELKGDIEKCLTTIVKCATSTPAFFAEKLYEAMKGAGTRHKALIRIMVSRSEIDMNEIKVFYQKKYGISLCQAILDETKGDYEKILVALCGGN
A: 1.13
